Every entry's value here was drawn from ChEMBL document CHEMBL1201862.

- measurementDescription: Trypanosoma cruzi growth suppression in host cells – NIH3T3 host cells, beta-gal luminescence, confirmation (AID 2044);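 note: intracellular parasites grown in NIH/3T3 mouse fibroblasts as host cells; luminescent beta-galactosidase reporter signal from transgenic T. cruzi replicating inside host cells; inhibitors lower the luminescence signal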
- Type: functional, cell-based
Activity calls are given as the source filed them.
endpointName: EC50

INSERT INTO results (compound, readoutvalue) VALUES
  ('O=C(Nc1ccccc1-c1nnc(SCc2ccc(Cl)cc2)o1)c1ccccc1', '2220 nM (active)'),
  ('N=c1c2c(n(Cc3ccc(F)cc3)c3c1CCC3)CCCC2', '639 nM (active)'),
  ('c1ccc(CCc2ccncc2)cc1', '1520 nM (active)'),
  ('O=[N+]([O-])c1nn(-c2ccccc2)[n+]([O-])c1N1CCN(c2ccccc2F)CC1', '458 nM (active)'),
  ('COc1cc(-c2nc3ccccn3c2NCc2ccccc2)ccc1SC1CCCCC1', '954 nM (active)'),
  ('N#CCCn1cc(/C=N/NC(N)=S)c(-c2ccc(-c3ccccc3)cc2)n1', '924 nM (active)'),
  ('Cc1ccc(NC(=O)C2CC2C)cc1S(=O)(=O)N1CCOCC1 (centres undefined)', '1910 nM (active)'),
  ('CO[C@@]12[C@H](COC(N)=O)C3=C(C(=O)C(C)=C(N)C3=O)N1C[C@H]1[C@@H]2N1C (some centres undefined)', '< 100 nM (active)'),
  ('CC(=O)OC(C)(C)/C=C/C(=O)C(C)(O)C1[C@H](O)C[C@@]2(C)C3CC=C4C(CC[C@@H](O)C4(C)C)[C@]3(CO)C(=O)C[C@]12C (some centres undefined)', '330 nM (active)');

====

- assayTarget: 5-hydroxytryptamine receptor 2A (Mus musculus, UniProt P35363);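 note: CHO-K1 cells with tagged receptor and beta-arrestin; agonist potency measured as compound-induced activation of the receptor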
- Sequence (P35363 whole entry): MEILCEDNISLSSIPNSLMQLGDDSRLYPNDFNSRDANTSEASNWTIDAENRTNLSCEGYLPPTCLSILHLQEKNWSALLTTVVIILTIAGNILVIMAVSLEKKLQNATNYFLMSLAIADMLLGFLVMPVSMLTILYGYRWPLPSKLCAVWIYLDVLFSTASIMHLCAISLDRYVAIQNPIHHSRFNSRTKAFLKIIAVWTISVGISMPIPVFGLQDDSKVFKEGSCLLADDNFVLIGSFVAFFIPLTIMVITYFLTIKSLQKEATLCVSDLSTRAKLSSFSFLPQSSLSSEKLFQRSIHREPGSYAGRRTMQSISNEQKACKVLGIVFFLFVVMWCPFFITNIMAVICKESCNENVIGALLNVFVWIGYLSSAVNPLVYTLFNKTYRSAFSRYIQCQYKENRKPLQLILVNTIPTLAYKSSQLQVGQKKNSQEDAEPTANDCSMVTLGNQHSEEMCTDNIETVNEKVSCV
- Assay type: functional, cell-based
Active and inactive are the calls of the source.
Outcome codes: True for active, False for inactive

INSERT INTO measurements (compound, category) VALUES
  ('CN1CCc2cc(O)cc3c2[C@H]1Cc1ccc(O)c(O)c1-3', 'True'),
  ('CCS(=O)(=O)N1CCC(C(=O)NCCCN2CCN(c3ccccc3F)CC2)CC1', 'False'),
  ('CC(C)C[C@H]1C(=O)N2CCC[C@H]2[C@]2(O)O[C@](NC(=O)[C@@H]3C=C4c5cccc6[nH]c(Br)c(c56)CC4N(C)C3)(C(C)C)C(=O)N12 (some centres undefined)', 'True'),
  ('CCC(c1nnnn1-c1ccc2c(c1)OCCO2)N1CCN(C/C=C/c2ccccc2)CC1 (centres undefined)', 'False');

====

- assayTarget: Cytochrome P450 3A4 (Homo sapiens, UniProt P08684);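 note: CYP3A4 tested as one member of a cytochrome P450 panel screen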
- Sequence (P08684 whole entry): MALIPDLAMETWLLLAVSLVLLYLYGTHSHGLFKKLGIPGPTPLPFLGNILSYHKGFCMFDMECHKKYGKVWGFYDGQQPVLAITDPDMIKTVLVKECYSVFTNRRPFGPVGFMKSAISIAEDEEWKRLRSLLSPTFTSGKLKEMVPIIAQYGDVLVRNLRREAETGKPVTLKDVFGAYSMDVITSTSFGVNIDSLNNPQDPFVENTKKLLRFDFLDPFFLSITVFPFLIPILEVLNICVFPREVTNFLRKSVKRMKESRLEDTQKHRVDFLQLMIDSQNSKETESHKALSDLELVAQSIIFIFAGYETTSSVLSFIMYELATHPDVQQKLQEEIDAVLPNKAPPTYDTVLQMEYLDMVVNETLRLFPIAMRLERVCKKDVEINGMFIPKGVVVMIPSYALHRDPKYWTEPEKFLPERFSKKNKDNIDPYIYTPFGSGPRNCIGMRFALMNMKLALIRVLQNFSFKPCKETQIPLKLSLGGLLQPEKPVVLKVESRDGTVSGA
Each record here notes measured AC50.
endpointName: AC50

INSERT INTO results (compound, readoutvalue) VALUES
  ('Cc1noc(C)c1-c1cc(NC2CC2)ncn1', '25.1 µM (inconclusive)'),
  ('CC(C)Oc1cccc(C(=O)NC(=S)N2CCN(c3ccc(C(F)(F)F)cc3[N+](=O)[O-])CC2)c1', '14.1 µM (inconclusive)'),
  ('COc1cc(C(=O)Nc2ccc3c(c2)OCCO3)c(-n2cnnn2)cc1OC', '25.1 µM (inconclusive)'),
  ('CC(C)=NO[C@@H](C)CN1CCCCc2nc(C)c(C)cc21', '3.98 µM (inconclusive)'),
  ('Cc1ccc(-c2ccc(=O)n(CC(=O)NCCN3CCCCC3C)n2)cc1 (centres undefined)', '17.8 µM (inconclusive)'),
  ('Cc1ccc(CNC(=O)COC(=O)c2cnccn2)cc1', '17.8 µM (inconclusive)'),
  ('O=C1/C(=C\c2ccccc2)C[C@@]2(O)[C@H]3Cc4ccc(O)c5c4[C@@]2(CCN3CC2CC2)[C@@H]1O5', '31.6 µM (inconclusive)'),
  ('COc1cc(NS(C)(=O)=O)ccc1Nc1c2ccccc2nc2ccccc12 [AMSACRINE]', '20 µM (inconclusive)'),
  ('Cc1ccccc1-c1cc(Nc2ccc(F)cc2)ncn1', '39.8 µM (inconclusive)'),
  ('Cc1oc2c(C)c(O)ccc2c(=O)c1-c1ccc2ccccc2n1', '7.94 µM (inconclusive)'),
  ('COc1ccc(S(=O)(=O)N(C)CC(=O)NCc2ccco2)cc1', '15.8 µM (inconclusive)'),
  ('O=c1cnc2cnc(Oc3ccccc3)nc2n1Cc1ccc(F)cc1', '20 µM (inconclusive)'),
  ('N#Cc1ccc(CN2CCC3(CC2)CCN(S(=O)(=O)c2ccccc2)CC3)cc1', '20 µM (inconclusive)'),
  ('Cc1c2cccc(Sc3ccccc3)c2c2c3c(cccc13)[S+](c1ccccc1)C2 (centres undefined)', '3.16 µM (inconclusive)'),
  ('CC(=O)NCCNc1ncnc2ccc(-c3ccccc3C#N)cc12', '25.1 µM (inconclusive)'),
  ('O=C(CSc1ccccn1)Nc1nc2ccc(Br)cc2s1', '22.4 µM (inconclusive)'),
  ('Cc1ccc(C)c(N(CC(=O)NC2CCCC2)C(=O)c2cc3cc4cccc(C)c4nc3s2)c1', '2.51 µM (inconclusive)'),
  ('CNc1ncnc2ccc(-c3ccccc3C#N)cc12', '12.6 µM (inconclusive)'),
  ('Cc1ccc(Cn2ccc(NC(=O)c3cc4nc(-c5ccco5)cc(C(F)(F)F)n4n3)n2)cc1', '2.82 µM (inconclusive)'),
  ('CC(CCc1ccccc1)NC(=O)/C=C/c1ccccc1 (centres undefined)', '25.1 µM (inconclusive)'),
  ('CN(C)Cc1ccccc1-c1cc(NCc2cccs2)ncn1', '10 µM (inconclusive)'),
  ('CC(C)NC(=O)N1CCC2(CC1)CCN(C(=O)c1ccncc1)CC2', '25.1 µM (inconclusive)'),
  ('CN(C)c1ncc2nc(CCc3ccccc3)c(=O)n(CCC#N)c2n1', '20 µM (inconclusive)'),
  ('CC(C)=CCC/C(C)=C/CC/C(C)=C/CSc1ccccc1C(=O)O [SALIRASIB]', '31.6 µM (inconclusive)');

====

Item-by-item account of IC50
- assayTarget: Induced myeloid leukemia cell differentiation protein Mcl-1 (Homo sapiens, UniProt Q07820)
- Sequence (Q07820 whole entry): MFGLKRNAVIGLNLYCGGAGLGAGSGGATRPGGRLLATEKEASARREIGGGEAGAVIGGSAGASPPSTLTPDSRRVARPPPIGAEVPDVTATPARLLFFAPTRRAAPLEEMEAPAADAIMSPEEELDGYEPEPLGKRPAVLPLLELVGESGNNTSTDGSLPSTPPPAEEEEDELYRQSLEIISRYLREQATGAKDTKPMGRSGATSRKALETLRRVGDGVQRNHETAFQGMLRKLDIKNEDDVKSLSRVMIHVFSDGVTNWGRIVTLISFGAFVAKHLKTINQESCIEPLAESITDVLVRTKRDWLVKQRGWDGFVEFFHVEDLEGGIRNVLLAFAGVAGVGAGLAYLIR
- Type: functional
Calls of active or inactive are those of the source.
endpointName: IC50

INSERT INTO results (chemsmiles, readoutvalue) VALUES
  ('Oc1ccc(/C=N/NC(=S)Nc2cccnc2)c(O)c1O', '19.5 µM (active)'),
  ('Cc1ccc(NC(=O)c2cc(N3C(=O)C=CC3=O)ccc2Cl)cc1C', '5.4 µM (active)'),
  ('O=C1SC(SCc2ccccc2Cl)=N/C1=C\c1ccc(C(=O)O)cc1', '5.02 µM (active)'),
  ('O=[N+]([O-])c1cc(S(=O)(=O)c2ccc(O)c([N+](=O)[O-])c2)ccc1O', '2.82 µM (active)'),
  ('Oc1ccc(/C=N/Nc2ccnc3cc(Cl)ccc23)cc1O', '4.73 µM (active)');

====

Known EC50 of a selection of compounds
- assayTarget: Short transient receptor potential channel 4 (Mus musculus)
- Sequence (Q9QUQ5 whole entry): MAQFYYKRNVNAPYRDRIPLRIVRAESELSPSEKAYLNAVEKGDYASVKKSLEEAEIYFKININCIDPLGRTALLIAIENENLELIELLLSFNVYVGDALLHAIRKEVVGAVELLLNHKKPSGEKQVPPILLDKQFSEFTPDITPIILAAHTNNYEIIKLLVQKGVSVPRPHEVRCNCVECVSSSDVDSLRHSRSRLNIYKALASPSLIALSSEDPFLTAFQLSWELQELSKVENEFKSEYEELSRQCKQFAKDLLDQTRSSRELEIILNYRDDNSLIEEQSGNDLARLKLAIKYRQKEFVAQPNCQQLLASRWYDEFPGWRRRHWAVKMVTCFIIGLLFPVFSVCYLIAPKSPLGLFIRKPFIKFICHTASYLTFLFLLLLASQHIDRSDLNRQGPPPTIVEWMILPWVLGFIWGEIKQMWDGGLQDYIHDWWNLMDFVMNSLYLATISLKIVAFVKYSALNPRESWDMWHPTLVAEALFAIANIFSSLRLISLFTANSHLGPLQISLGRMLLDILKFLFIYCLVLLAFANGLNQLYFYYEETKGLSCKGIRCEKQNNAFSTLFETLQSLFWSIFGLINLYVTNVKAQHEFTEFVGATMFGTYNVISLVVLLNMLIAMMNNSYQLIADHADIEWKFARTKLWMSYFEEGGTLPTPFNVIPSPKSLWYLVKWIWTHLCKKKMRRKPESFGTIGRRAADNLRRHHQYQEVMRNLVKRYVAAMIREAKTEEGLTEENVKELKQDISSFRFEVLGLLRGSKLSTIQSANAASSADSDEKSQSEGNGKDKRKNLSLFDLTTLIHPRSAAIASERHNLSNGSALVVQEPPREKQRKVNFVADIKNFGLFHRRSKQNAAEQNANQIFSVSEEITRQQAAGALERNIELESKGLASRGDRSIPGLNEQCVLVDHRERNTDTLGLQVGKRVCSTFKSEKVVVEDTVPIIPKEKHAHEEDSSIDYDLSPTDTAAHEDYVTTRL
- measurementDescription: calcium entry via TRPC4 opening agents – cell-based, HEK293 TRPC4/mu-opioid, Fluo-4 calcium, dose response (AID 434937)
- Assay type: functional
Calls of active or inactive are those of the source.
endpointName: EC50

INSERT INTO assay_data (compound, assaytarget, readoutvalue) VALUES
  ('CC(C)c1ccc(NC(=S)N(C)CCc2ccccn2)cc1', 'Short transient receptor potential channel 4 (Mus musculus)', '5960 nM (active)'),
  ('CN(C)C(CNC(=O)Cc1ccc([N+](=O)[O-])cc1)c1ccccc1 (centres undefined)', 'Short transient receptor potential channel 4 (Mus musculus)', '531 nM (active)'),
  ('CCCCN(CC)CCNC(=O)c1cc2c(C)nc3ccccc3c2o1', 'Short transient receptor potential channel 4 (Mus musculus)', '944 nM (active)'),
  ('Fc1ccc(C(c2nnnn2Cc2cccs2)N2CCN(C3CCCCC3)CC2)cc1 (centres undefined)', 'Short transient receptor potential channel 4 (Mus musculus)', '1190 nM (active)');

====

The entries below are paired with their reported EC50.
- assayTarget: Peroxisome proliferator-activated receptor gamma/Nuclear receptor coactivator 1 (Homo sapiens, UniProt P37231)
- Sequence (P37231 whole entry): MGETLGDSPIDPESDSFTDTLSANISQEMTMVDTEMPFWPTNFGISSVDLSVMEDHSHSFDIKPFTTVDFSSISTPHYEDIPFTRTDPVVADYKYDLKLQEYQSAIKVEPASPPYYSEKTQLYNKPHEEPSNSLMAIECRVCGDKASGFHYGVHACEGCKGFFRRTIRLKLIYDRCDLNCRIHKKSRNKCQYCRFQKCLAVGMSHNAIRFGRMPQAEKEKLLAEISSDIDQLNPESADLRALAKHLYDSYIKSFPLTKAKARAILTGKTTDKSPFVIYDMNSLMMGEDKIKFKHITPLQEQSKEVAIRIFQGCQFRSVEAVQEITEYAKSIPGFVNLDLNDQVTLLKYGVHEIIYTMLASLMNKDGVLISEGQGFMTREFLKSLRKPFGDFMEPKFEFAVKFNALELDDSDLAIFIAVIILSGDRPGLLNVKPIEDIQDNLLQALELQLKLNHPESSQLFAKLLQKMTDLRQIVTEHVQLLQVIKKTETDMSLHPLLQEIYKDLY
- Sequence (Q15788 whole entry, further chain): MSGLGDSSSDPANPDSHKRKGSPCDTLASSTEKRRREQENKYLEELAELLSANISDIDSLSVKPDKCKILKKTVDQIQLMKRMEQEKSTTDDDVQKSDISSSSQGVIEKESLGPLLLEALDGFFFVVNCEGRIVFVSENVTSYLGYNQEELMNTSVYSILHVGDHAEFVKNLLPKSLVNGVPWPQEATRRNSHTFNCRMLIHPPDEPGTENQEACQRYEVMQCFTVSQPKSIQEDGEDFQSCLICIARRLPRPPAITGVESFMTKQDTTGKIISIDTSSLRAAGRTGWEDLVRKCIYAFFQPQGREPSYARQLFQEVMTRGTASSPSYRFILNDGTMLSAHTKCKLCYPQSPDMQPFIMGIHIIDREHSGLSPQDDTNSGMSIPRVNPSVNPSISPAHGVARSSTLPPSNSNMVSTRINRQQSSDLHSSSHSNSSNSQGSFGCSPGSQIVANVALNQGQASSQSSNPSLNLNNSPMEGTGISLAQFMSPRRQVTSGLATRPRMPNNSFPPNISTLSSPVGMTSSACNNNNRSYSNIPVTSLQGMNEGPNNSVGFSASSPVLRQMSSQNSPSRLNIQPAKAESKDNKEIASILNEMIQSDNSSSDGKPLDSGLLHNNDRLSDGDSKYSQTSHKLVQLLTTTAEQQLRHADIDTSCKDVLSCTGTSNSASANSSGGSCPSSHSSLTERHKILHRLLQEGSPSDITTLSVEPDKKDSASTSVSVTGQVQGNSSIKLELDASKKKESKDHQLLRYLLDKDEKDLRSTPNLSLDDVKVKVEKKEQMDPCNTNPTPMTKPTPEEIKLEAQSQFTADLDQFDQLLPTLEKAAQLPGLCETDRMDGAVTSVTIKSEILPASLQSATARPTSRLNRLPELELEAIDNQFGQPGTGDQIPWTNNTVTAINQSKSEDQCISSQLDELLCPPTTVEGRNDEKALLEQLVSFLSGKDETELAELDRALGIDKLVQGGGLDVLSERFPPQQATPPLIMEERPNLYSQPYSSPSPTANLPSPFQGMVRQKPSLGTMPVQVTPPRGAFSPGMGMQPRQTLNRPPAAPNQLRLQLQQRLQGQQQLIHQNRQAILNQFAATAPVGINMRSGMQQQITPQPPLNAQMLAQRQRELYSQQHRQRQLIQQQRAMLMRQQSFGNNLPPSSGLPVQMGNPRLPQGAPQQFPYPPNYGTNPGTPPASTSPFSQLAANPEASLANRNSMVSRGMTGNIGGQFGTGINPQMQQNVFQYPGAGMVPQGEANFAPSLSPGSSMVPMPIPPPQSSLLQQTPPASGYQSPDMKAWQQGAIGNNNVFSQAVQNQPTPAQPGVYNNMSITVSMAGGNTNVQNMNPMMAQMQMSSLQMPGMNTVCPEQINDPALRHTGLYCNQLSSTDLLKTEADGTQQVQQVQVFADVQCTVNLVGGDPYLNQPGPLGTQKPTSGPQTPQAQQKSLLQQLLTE
- measurementDescription: TR-FRET dose response biochemical High Throughput Screening assay for agonists of the steroid receptor coactivator 1 (SRC-1) recruitment by the peroxisome proliferator-activated receptor gamma (PPAR gamma): non-selective agonists. [Related pubchem assays (depositor defined):AID1300, AID1808, AID504735, AID631]
- Assay type: protein assay
Activity calls are given as the source filed them.
endpointName: EC50

INSERT INTO assay_data (chemsmiles, readoutvalue) VALUES
  ('O=C(Cc1cccs1)NCCSc1c(-c2ccc(Cl)cc2)[nH]c2ccccc12', '12.3 µM (inactive)'),
  ('Fc1ccc(COc2cccc(-c3nnc(S)o3)c2)cc1', '9.44 µM (active)'),
  ('O=C(OCn1ncc(Br)c(Br)c1=O)c1ccc(F)cc1', '> 79.4 µM (inactive)'),
  ('COC(=O)c1sccc1-c1ccc(/C=N/OC(=O)c2ccccc2)o1', '12.2 µM (inactive)');
